test system: RPMI-8226 leukemia; experiment: NCI-60 one-dose screen, 48 h (100 = growth as untreated, 0 = no growth, -100 = all killed); conditions: 10 µM unless noted
This is part of a sample that, as a whole, favours compounds with a hit. Of some 83,000 tested, about 20% had one in any assay.
Recorded Metric: growth (%)

1. CC1=NNC(=O)C1C (stereo unspecified): 73.1
2. Nc1cc2ccncc2c2ccccc12: 84.1
3. CCN(CC)CC(C)(C)C(=O)/C=C/c1ccccc1: 39.4
4. C(=N\Nc1nnn(Cc2ccccc2)n1)/c1ccccc1: 31.2
5. COc1c2ccccc2c(OC)c2[nH]c(=O)ccc12: 55.2
6. C/C(=C(/c1ccc(O)cc1)c1ccc(OCCN2CCCC2)cc1)c1ccccc1: 11.9
7. CCC(=O)Oc1ccc(/C(=C(\C)c2ccccc2)c2ccc(OCCN(CC)CC)cc2)cc1: 68.2
8. COc1cccc(/C=C2/C(=O)N(Cc3ccco3)SC2=S)c1OC: 74.2
9. COc1ccc(C/C(C)=C(\c2ccc(Cl)cc2)c2ccc(OCCN3CCCCCC3)cc2)cc1: 54.3
10. Nc1nc(-c2ccc(F)cc2)cc(-c2cnn(-c3ccccc3)n2)n1: 105
11. O=C(CCN1CCOCC1)Nc1ccc(Cn2nnc3c2C(=O)c2nnn(Cc4ccc(NC(=O)CCN5CCOCC5)cc4)c2C3=O)cc1: 5.5

---

test system: HOP-62 NSCLC; assay: NCI-60 one-dose screen, 48 h; conditions: 10 µM unless noted
This is part of a sample that, as a whole, favours compounds with a hit. Of some 83,000 tested, about 20% had one in any assay. Active and inactive are the calls of the source. How the source made its calls: active means growth percent below 10; inactive means the rest.
Outcome codes: TRUE = active, FALSE = inactive

1. COc1ccc(-c2cc(=O)[nH]c3c(OC)c4ccccc4c(OC)c23)cc1: FALSE
2. Brc1cccc(-c2nc(-c3ccc4c(c3)OCCO4)co2)c1: FALSE
3. OC(c1cc(-c2ccccc2)nc2ccc(Cl)cc12)C1CCCCN1 (stereo unspecified): FALSE
4. Nc1nc2c(c3ncccc13)C(c1cccc(Br)c1)Cc1ncccc1-2 (stereo unspecified): FALSE
5. Cc1cc2c(cc1C)NC1=C(N2)OC(c2c3ccccc3cc3ccccc23)C1=O (stereo unspecified): FALSE
6. CN(C)c1ccc(/C=C(\C#N)c2nc3ccccc3s2)cc1: FALSE
7. CN(C)c1ccc(/C=C\C2=[N+](C)c3ccccc3C2(C)C)cc1: FALSE
8. O=c1cc(-c2ccccc2)[nH]c2ccccc12: FALSE
9. CCCCCCCCCc1cc(CN2CCCCC2)c(O)c(CN2CCCCC2)c1: FALSE
10. CS(=O)CCCCCN=C=S (stereo unspecified): TRUE
11. Cc1ccc2c(c1)C(=O)/C(=C/c1ccc(OCC(=O)c3ccccc3)cc1)O2: FALSE

---

Each record here notes measured growth.
tested on: MDA-MB-231 breast; assay: NCI-60 one-dose screen, 48 h (100 = growth as untreated, 0 = no growth, -100 = all killed); settings: 10 µM unless noted
About 83,000 compounds went through this panel and 20% of them were active in at least one assay; those are over-represented in the sample as a whole.
Recorded Metric: growth (%)

1) CCCCCCCCCc1cc(CN2CCCCC2)c(O)c(CN2CCCCC2)c1: 30.9
2) COc1ccc(S(=O)(=O)NCCCNc2cc(-c3c(-c4cccc(OC)c4)nc4sccn34)ccn2)cc1: 46.8
3) Cc1ccc(NC(=O)c2sc3nc4c(cc3c2N)C(=O)CCC4)cc1C: 35.3
4) Cn1c2ccccc2c2c3c(c4c5ccccc5n(CCCCCC#N)c4c21)C(=O)N(O)C3=O: 27.9
5) O=C1C[C@H](Sc2nc(-c3ccc(F)cc3)cc(C(F)(F)F)n2)[C@H]2CO[C@@H]1O2: 96.2

Origin of the recorded values: PubChem BioAssay (NCI)
